pIC50: −log10 of the molar value.
Values of pIC50 for Epithelial discoidin domain-containing receptor 1 (Homo sapiens, UniProt Q08345), collected from a number of published sources:
QUANTITY: pIC50

| COMPOUND | QUANTITY | REPORTED_RESULT |
| --- | --- | --- |
| CN1CCN(Cc2cc(C(=O)Nc3ccc4c(c3)N(Cc3cnc5cnccn35)CC4)cc(C(F)(F)F)c2)CC1 | pIC50 | 7.30 to 7.60 |
| Cn1nc(C(C)(C)C)cc1NC(=O)c1csc2c1CCN(C(=O)c1cnc3ccc(C(F)(F)F)cn13)C2 | pIC50 | 7.30 to 7.60 |
| CN1CCN(Cc2ccc(NC(=O)c3csc4c3CCN(C(=O)c3cnc5ccccn35)C4)cc2C(F)(F)F)CC1 | pIC50 | 7.10 to 7.30 |
| Cc1n[nH]c2ncc(CN3CCc4ccc(C(=O)Nc5cc(C(=O)N6CCN(C)CC6)cc(C(F)(F)F)c5)cc43)cc12 | pIC50 | > 7.60 |
| CN(C)Cc1ccc2ncc(C(=O)N3CCc4c(C(=O)Nc5cccc(C(F)(F)F)c5)csc4C3)n2c1 | pIC50 | 7.30 to 7.60 |
| O=C(Nc1cccc(C(F)(F)F)c1)c1csc2c1CCN(Cc1ccnc3[nH]ccc13)C2 | pIC50 | > 7.60 |
| Nc1ncc(CN2CCc3c(C(=O)Nc4ccc(Cl)c(C(F)(F)F)c4)csc3C2)cn1 | pIC50 | > 7.60 |
| CC(C)c1cc(NC(=O)c2csc3c2CCN(C(=O)c2cnc4ccccn24)C3)n(C)n1 | pIC50 | 7.10 to 7.30 |
| Cc1n[nH]c2ncc(CN3CCc4ccc(C(=O)Nc5cc(OCCN6CCCC6)cc(C(F)(F)F)c5)cc43)cc12 | pIC50 | > 7.60 |
| O=C(Nc1cncc(C(F)(F)F)c1)c1csc2c1CCN(Cc1cnc3ccnn3c1)C2 | pIC50 | > 7.60 |
| O=C(Nc1cncc(OC(F)F)c1)c1csc2c1CCN(C(=O)c1cnc3ccccn13)C2 | pIC50 | 7.30 to 7.60 |
| N#Cc1cc(NC(=O)c2csc3c2CCN(C(=O)c2cnn4ccncc24)C3)cc(C(F)(F)F)c1 | pIC50 | > 7.60 |
| N#Cc1cc(NC(=O)c2csc3c2CCN(C(=O)c2cnc4ccccn24)C3)cc(C(F)(F)F)c1 | pIC50 | 7.30 to 7.60 |
| O=C(Nc1ccc(CN2CCOCC2)c(C(F)(F)F)c1)c1csc2c1CCN(C(=O)c1cnc3ccccn13)C2 | pIC50 | > 7.60 |
| C[C@@H]1c2scc(C(=O)Nc3cccc(C(F)(F)F)c3)c2CCN1C(=O)c1cnc2ccccn12 | pIC50 | > 7.60 |
| CC1c2scc(C(=O)Nc3cccc(C(F)(F)F)c3)c2CCN1Cc1cnc2[nH]ccc2c1 (single isomer, unassigned) | pIC50 | > 7.60 |
| Cc1ccc(C(=O)Nc2ccccn2)cc1C#Cc1cnc2cc(C3=CCCCC3)cnn12 | pIC50 | 7.64 |
| CNc1ccc(CN2CCc3c(C(=O)Nc4cc(F)cc(C(F)(F)F)c4)csc3C2)cn1 | pIC50 | > 7.60 |
| O=C(Nc1cccc(C(F)(F)F)c1)c1csc2c1CCN(Cc1cnc3[nH]ccc3c1)C2 | pIC50 | > 7.60 |
| CC(C)(c1cc(NC(=O)c2csc3c2CCN(Cc2cnc(N)nc2)C3)no1)C(F)(F)F | pIC50 | > 7.60 |
| O=C(Nc1cccc(C(F)(F)F)c1)c1ccc2c(c1)N(Cc1ccc3[nH]cnc3c1)CC2 | pIC50 | 7.10 to 7.30 |
| O=C(Nc1cccc(OC(F)(F)F)c1)c1ccc2c(c1)N(Cc1cnc3cnccn13)CC2 | pIC50 | 7.30 to 7.60 |
| Cc1cn(-c2cc(C(=O)Nc3ccc4c(c3)N(C(=O)c3cnc5ccccn35)CC4)cc(C(F)(F)F)c2)cn1 | pIC50 | 7.30 to 7.60 |
| CN1CCN(c2ccc3ncc(C(=O)N4CCc5c(C(=O)Nc6cccc(C(F)(F)F)c6)csc5C4)n3c2)CC1 | pIC50 | > 7.60 |
| CN(C)Cc1ccc(NC(=O)c2ccc3c(c2)N(Cc2cnc4cnccn24)CC3)cc1C(F)(F)F | pIC50 | 7.30 to 7.60 |
| O=C(Nc1cc(CN2CCCC2)cc(C(F)(F)F)c1)c1csc2c1CCN(C(=O)c1cnc3ccccn13)C2 | pIC50 | > 7.60 |
| CN1CCN(Cc2cc(NC(=O)c3ccc4c(c3)N(Cc3cnc5cnccn35)CC4)cc(C(F)(F)F)c2)CC1 | pIC50 | 7.30 to 7.60 |
| O=C(Nc1cc(OCCN2CCOCC2)cc(C(F)(F)F)c1)c1csc2c1CCN(C(=O)c1cnc3ccccn13)C2 | pIC50 | > 7.60 |
| CN1CCN(c2cc(NC(=O)c3csc4c3CCN(C(=O)c3cnc5ccccn35)C4)cc(C(F)(F)F)c2)CC1 | pIC50 | 7.10 to 7.30 |
| Cc1cn(-c2cc(NC(=O)c3ccc4c(c3)N(C(=O)c3cnc5ccccn35)CC4)cc(C(F)(F)F)c2)cn1 | pIC50 | 7.10 to 7.30 |

* * *

Listed below are compounds with IC50 for Epithelial discoidin domain-containing receptor 1 (Homo sapiens, UniProt Q08345), each taken from published literature.

| ITEM_SMILES | IC50 |
| --- | --- |
| CC(C)(c1cc(NC(=O)c2csc3c2CCN(C(=O)c2cnn4ccncc24)C3)no1)C(F)(F)F | 0.025 to 0.05 µM |
| O=C(Nc1cc(F)cc(C(F)(F)F)c1)c1csc2c1CCN(Cc1cnc(NCCO)nc1)C2 | 0.025 to 0.05 µM |
| O=C(Nc1cc(OCCN2CCCC2)cc(C(F)(F)F)c1)c1ccc2c(c1)N(Cc1cnc3cnccn13)CC2 | 0.05 to 0.08 µM |
| Cc1n[nH]c2ncc(CN3CCc4c(C(=O)Nc5cc(CN6CC[C@@H](N(C)C)C6)cc(C(F)(F)F)c5)csc4C3)cc12 | 0.025 to 0.05 µM |
| O=C(Nc1cccc(C(F)(F)F)c1)c1csc2c1CCN(Cc1cncc(F)c1)C2 | 0.025 to 0.05 µM |
| CC(C)(c1cc(NC(=O)c2ccc3c(c2)N(Cc2cnc4ccccn24)CC3)no1)C(F)(F)F | < 0.025 µM |
| O=C(Nc1cncc(C(F)(F)F)c1)c1csc2c1CCN(C(=O)c1cnn3ccccc13)C2 | < 0.025 µM |
| Cc1ccn2c(C(=O)N3CCc4c(C(=O)Nc5cc(C(C)(C)C)nn5C)csc4C3)cnc2c1 | 0.025 to 0.05 µM |

* * *

Please find below pIC50 data on Epithelial discoidin domain-containing receptor 1 (Homo sapiens) compiled from the literature.
pIC50: −log10 of the molar value.

| MOLECULE | pIC50 |
| --- | --- |
| O=C(Nc1cccc(C(F)(F)F)c1)c1ccc2c(c1)N(Cc1cnc3ccccn13)CC2 | 7.30 to 7.60 |
| CN1CCN(Cc2cc(NC(=O)c3csc4c3CCN(Cc3cncnc3)C4)cc(C(F)(F)F)c2)CC1 | 7.10 to 7.30 |
| CC(C)(c1cc(NC(=O)c2ccc3c(c2)N(Cc2cnc4cnccn24)CC3)no1)C(F)(F)F | 7.30 to 7.60 |
| O=C(Nc1cncc(C(F)(F)F)c1)c1csc2c1CCN(C(=O)c1cnc3n1CCCN3)C2 | 7.10 to 7.30 |
| Cn1nc(NC(=O)c2csc3c2CCN(Cc2cnc(N)nc2)C3)cc1C(C)(C)C | > 7.60 |
| O=C(Nc1cncc(C(F)(F)F)c1)c1csc2c1CCN(Cc1cnc3cnccn13)C2 | > 7.60 |
| Cc1cncc(CN2CCc3c(C(=O)Nc4cccc(C(F)(F)F)c4)csc3C2)c1 | 7.10 to 7.30 |
| CC1CN(C(=O)c2cnc3ccccn23)Cc2scc(C(=O)Nc3cccc(C(F)(F)F)c3)c21 (centres unmarked) | > 7.60 |

* * *

# literature pull: Epithelial discoidin domain-containing receptor 1 (Homo sapiens, UniProt Q08345) IC50
QUANTITY: IC50

| ITEM_SMILES | SYSTEM | REPORTED_RESULT |
| --- | --- | --- |
| Cc1ccc(C(=O)Nc2ccccn2)cc1C#Cc1cnc2cc(C3CC=CC3)cnn12 | Epithelial discoidin domain-containing receptor 1 (Homo sapiens, UniProt Q08345) | < 500 nM |
| CCn1nc(C(C)(C)C)cc1NC(=O)c1csc2c1CCN(C(=O)c1cnc3ccccn13)C2 | Epithelial discoidin domain-containing receptor 1 (Homo sapiens, UniProt Q08345) | 50 to 80 nM |
| CN(C)Cc1cc(NC(=O)c2csc3c2CCN(C(=O)c2cnc4ccccn24)C3)cc(C(F)(F)F)n1 | Epithelial discoidin domain-containing receptor 1 (Homo sapiens, UniProt Q08345) | 25 to 50 nM |
| O=C(Nc1cccc(C(F)(F)F)c1)c1csc2c1CCN(Cc1cnc3cnccn13)C2 | Epithelial discoidin domain-containing receptor 1 (Homo sapiens, UniProt Q08345) | < 25 nM |
| CN1CCN(Cc2cc(NC(=O)c3ccc4c(c3)N(Cc3cnc5ccccn35)CC4)cc(C(F)(F)F)c2)CC1 | Epithelial discoidin domain-containing receptor 1 (Homo sapiens, UniProt Q08345) | 50 to 80 nM |
| CN(CCO)Cc1cc(NC(=O)c2csc3c2CCN(C(=O)c2cnc4ccccn24)C3)cc(C(F)(F)F)c1 | Epithelial discoidin domain-containing receptor 1 (Homo sapiens, UniProt Q08345) | < 25 nM |
| CN1CCN(Cc2ccc(NC(=O)c3ccc4c(c3)N(Cc3cnc5ccnn5c3)CC4)cc2C(F)(F)F)CC1 | Epithelial discoidin domain-containing receptor 1 (Homo sapiens, UniProt Q08345) | < 25 nM |
| CCC(C)(C)c1cc(NC(=O)c2csc3c2CCN(C(=O)c2cnn4ccncc24)C3)on1 | Epithelial discoidin domain-containing receptor 1 (Homo sapiens, UniProt Q08345) | 50 to 80 nM |
